Attribution: PubChem BioAssay AID492997

Assay overview: thallium flux in non-induced HEK293 cells, confirmation, counter-screen for KCNK9 inhibitor project, cell-based, second counter screen, non-induced KCNK9-HEK293 (AID 492997)
Assay setup: non-induced KCNK9-HEK293, FluxOR thallium flux, at 10 µM
In all, about 4,900 compounds went through this assay and about 2,000 (41%) were called active.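 Rule for the calls: active = thallium signal drop beyond 5 SD of the untreated control mean, on both duplicate plates; inactive = the rest.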 So high a share suggests a set chosen from earlier hits. A selection follows.
Result category, one only: active, inactive

compound=Cc1ccc(N2CCN(S(=O)(=O)c3ccc(F)cc3)CC2)c(C)c1 assigned_class=inactive
compound=Clc1cccc(-c2nc3nc4ccccc4nc3n2Cc2ccco2)c1 assigned_class=inactive
compound=COc1ccc(Nc2ncnc3sc(-c4ccccc4)cc23)c(OC)c1 assigned_class=inactive
compound=CCc1nnc(NS(=O)(=O)c2ccc(NC(=S)NC(=O)/C=C/c3cccs3)cc2)s1 assigned_class=inactive
compound=COc1ccccc1NC(=O)CSc1nc2sc(C)c(C)c2c(=O)n1Cc1ccco1 assigned_class=active

Call for entry `COc1ccc(-c2n[nH]c3c2CN(C(=O)c2ccc(F)cc2)CC3)cc1` :
inactive

And for `O=C(/C=C/NNC(=O)c1cccc(Br)c1)c1ccccc1` ?
active

Also need `Cc1ccc(Cn2ccc(NC(=O)c3cc(C(C)C)on3)n2)cc1` , thanks.
inactive

Another compound to look at: `COc1ccc2c(c1)C(c1cccs1)=NNC(c1cccnc1)=N2`
active

`CCOc1ccc(OCc2ccc(C(=O)Nc3cccc(C)n3)o2)cc1` , same question.
inactive

Try `COc1cccc(-c2cc3nc4c(c(N5CCC6(CC5)OCCO6)n3n2)CCCC4)c1` next.
active

Would you mind doing `CCCCC(=O)Nc1ccccc1N1CCN(c2ccc(F)cc2)CC1` as well?
active

Thanks! And Cc1ccc(NC2CCCN(C(=O)CCC3(C)CC3)C2)cc1C (configuration not stated) ?
inactive

Also `COC(=O)Cn1cnc2scc(-c3ccc(C)c(C)c3)c2c1=O` ?
inactive

Also `CCOC(=O)CSc1nc2c(sc(=S)n2CCc2ccccc2)c(=O)n1Cc1ccco1` ?
active

---

Assay overview: thallium flux in non-induced HEK293 cells, confirmation, counter-screen for KCNK9 inhibitor project, cell-based, second counter screen, non-induced KCNK9-HEK293 (AID 492997)
Assay setup: non-induced KCNK9-HEK293, FluxOR thallium flux, at 10 µM
Hit rate of the full screen: of about 4,900 compounds, about 2,000 (41%) were called active.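 Rule for the calls: active = thallium signal drop beyond 5 SD of the untreated control mean, on both duplicate plates; inactive = the rest.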 The set was probably picked from earlier hits. Only a sample is shown.
The reply should name one outcome from active, inactive

compound="CC(C)CC(COCc1ccc(Cl)cc1)N1CCN(C(=O)c2ccc(C(F)(F)F)cc2)CCC1=O (stereo not given)" assigned_class=active
compound="COC(=O)C1=C(Nc2ccc(C)cc2)C=C(C)C(C(=O)OC)C1c1ccc(F)cc1 (stereo not given)" assigned_class=active
compound=Cc1ccc(OS(=O)(=O)c2ccc(-c3csc(C)n3)s2)c(C)c1 assigned_class=inactive
compound="O=[N+]([O-])c1ccc(N2CCN(CC(O)COc3ccccc3)CC2)cc1 (stereo not given)" assigned_class=inactive
compound="COc1ccc(C(=O)C2CCCN(C(=O)c3ccc(OC)o3)C2)c(C)c1 (stereo not given)" assigned_class=inactive

Call for entry COc1ccc(C(=O)NN2C(=O)C3C(c4ccccc4)C=CC(c4ccccc4)C3C2=O)cc1 (stereo not given) :
inactive

// next record `O=C(Nc1ccc(S(=O)(=O)N2CCCCC2)cc1)C1CCN(C(=O)c2ccc(F)cc2)CC1`
inactive

Further, for `COc1cccc(COc2ccc(N(C)S(=O)(=O)c3ccccc3)cc2)c1` ?
active

And `CCCCCn1c(=O)c(C(=O)OCC)c(Cl)c2ccccc21` ?
active

Okay, and `COc1cccc(COC(=O)C2CCN(S(=O)(=O)c3ccc(Cl)cc3)CC2)c1OC` ?
inactive
